# assay target: SALL4 ZFC4 WT (HT-SELEX) (Mus musculus, UniProt Q8BX22 870-940)
# Sequence: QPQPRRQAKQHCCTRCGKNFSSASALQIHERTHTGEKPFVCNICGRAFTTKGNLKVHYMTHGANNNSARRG
# assay info: HT-SELEX; high values mean tight binding
# conditions used: protein: recombinant; vector His6-GST; dsDNA, one strand shown
Classification scheme (binding signal): Low: < 0.5 fold-change vs cycle 0; Mid: ≥ 0.5 fold-change vs cycle 0 and < 1 fold-change vs cycle 0; High: ≥ 1 fold-change vs cycle 0

{"columns": ["macromolecule sequence", "assigned label"],
 "data": [
  ["AATATG", "High"],
  ["CAGCTG", "Low"],
  ["CAGTCA", "Mid"],
  ["ATGTGC", "Mid"],
  ["CTGACA", "Mid"],
  ["CAGTGC", "Low"],
  ["CACGAG", "Low"],
  ["CAACAC", "Mid"],
  ["ACTTAC", "High"],
  ["AGCAAG", "Mid"],
  ["CTAAGA", "High"],
  ["ATGACA", "High"],
  ["AATTCA", "High"],
  ["AGTTCC", "Mid"],
  ["AGGGTA", "Mid"],
  ["ACCCGT", "Low"],
  ["CTCGAG", "Low"],
  ["TATACA", "High"],
  ["ACTGAA", "High"],
  ["AAGTCG", "Mid"],
  ["ATCCAA", "High"],
  ["CCCTCC", "Low"],
  ["ATGTAA", "High"]
]}

* * *

# assay target: SALL4 ZFC4 R900W (HT-SELEX) (Mus musculus, UniProt Q8BX22 870-940, R900W)
# Sequence: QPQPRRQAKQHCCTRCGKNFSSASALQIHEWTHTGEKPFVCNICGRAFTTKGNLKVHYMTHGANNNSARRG
# assay info: HT-SELEX; high values mean tight binding
# conditions used: protein: recombinant; vector His6-GST; dsDNA, one strand shown
Measured binding signal, listed per entry for reference.

{"columns": ["macromolecule sequence", "binding signal [fold-change vs cycle 0]"],
 "data": [
  ["GTACTA", 1.37],
  ["ACATGG", 0.918],
  ["TATAAA", 2.53],
  ["CTATAC", 1.46],
  ["AATTAG", 1.97],
  ["AACCGG", 0.391],
  ["AACTCG", 0.798],
  ["AACAAT", 1.95],
  ["GATGAC", 0.962],
  ["ATCCCC", 0.604],
  ["CCGATA", 0.717],
  ["AAAGCT", 1.13],
  ["ATATCC", 1.43],
  ["AGTCAA", 1.41],
  ["CGGAGA", 0.45],
  ["AGCACA", 0.77],
  ["AAGTAT", 2.14],
  ["AAACAC", 1.16],
  ["CGGGGA", 0.231],
  ["CGTATC", 0.818],
  ["GCAAAC", 0.598],
  ["ATCAAT", 2.07],
  ["ACTTAG", 1.56],
  ["GTTAAC", 1.53],
  ["ACGCAT", 0.556],
  ["ATAGCC", 0.624],
  ["ATTGTC", 1.21],
  ["GTGCCA", 0.266],
  ["GAGTGC", 0.398],
  ["CAATCA", 1.41],
  ["CAGCAG", 0.387],
  ["ACATGC", 0.711],
  ["CCGATC", 0.473],
  ["AAAAGT", 1.76],
  ["AGAATG", 1.52],
  ["GTGCAC", 0.313],
  ["CTCCGA", 0.433],
  ["CAAAGC", 0.654],
  ["ACGTTG", 0.753],
  ["CTAATC", 1.55],
  ["AAGTGA", 1.52],
  ["ATGTCA", 1.34],
  ["ACGGAG", 0.522],
  ["AAGTGG", 0.891],
  ["GGTGGA", 0.536],
  ["TCCAAA", 1.19],
  ["CTAGAC", 0.888],
  ["GTATCA", 1.4],
  ["CTTAAG", 1.56],
  ["CACTAG", 0.968],
  ["AAAATG", 1.56],
  ["TAAAGA", 2.15],
  ["CAGGAG", 0.596],
  ["GTATAC", 1.39],
  ["TGATAA", 2.08],
  ["CGAAGC", 0.325],
  ["AGGCGG", 0.136],
  ["CTAAGA", 1.51],
  ["CTTTCA", 1.47],
  ["ACCCAT", 0.916],
  ["ATGATG", 1.51],
  ["AAGGAG", 1.14],
  ["AGATCT", 1.45],
  ["AATGGA", 1.47],
  ["ATAATG", 2.02],
  ["AGCACG", 0.337],
  ["CAGCTG", 0.397],
  ["ACGGTC", 0.432],
  ["CAACCC", 0.488],
  ["GACAAC", 0.798],
  ["ACACCG", 0.384],
  ["TCTAAA", 1.85],
  ["GTATAA", 1.96],
  ["CGGCCA", 0.0795],
  ["CATTGG", 0.867],
  ["GGAGCA", 0.423],
  ["ACAGCA", 0.694],
  ["CTACCA", 0.894],
  ["AGTACC", 0.947],
  ["GGAAAC", 0.874],
  ["AGGGCC", 0.158],
  ["AGCATC", 0.804],
  ["ATTGCC", 0.566],
  ["AAGCAG", 0.821],
  ["CCGTAC", 0.458],
  ["TACCTA", 1.48],
  ["CACCGA", 0.392],
  ["GAGGCC", 0.158],
  ["AACTAG", 1.4],
  ["ACAAGG", 0.976],
  ["GTACCA", 0.835],
  ["CGGAGC", 0.166],
  ["ATAGTA", 2.08],
  ["CCTATA", 1.4],
  ["ACCTCT", 0.978],
  ["TATTCA", 2.03],
  ["ACCTGC", 0.391]
]}

Data provenance: paper PMC9838217
